test system: Staphylococcus aureus; test: Antibacterial activity against methicillin-susceptible Staphylococcus aureus ATCC 25923 after 16 to 18 hrs by broth microdilution method; format: functional; conditions: time 16-18 hrs
# MIC annotations
API: value field is a number in µg/mL; no unit string.

// known answers, use as guide
{"Compound": "CCCC[C@H](CN(O)C=O)C(=O)N1CCC[C@H]1c1nnc(C2CCCCC2)s1", "Unit info": "µg/mL", "Test value": 2}
{"Compound": "CCCC[C@H](CN(O)C=O)C(=O)N1CCC[C@H]1c1nnc(-c2ccc(OC)cc2)s1", "Unit info": "µg/mL", "Test value": 0.5}
{"Compound": "CCCC[C@H](CN(O)C=O)C(=O)N1CCC[C@H]1c1nnc(-c2ccc(C(F)(F)F)cc2F)s1", "Unit info": "µg/mL", "Test value": 2}
{"Compound": "CCCC[C@H](CN(O)C=O)C(=O)N1CCC[C@H]1c1nnc(-c2ncccc2F)s1", "Unit info": "µg/mL", "Test value": 1}
{"Compound": "CCCCc1ccc(-c2nnc([C@@H]3CCCN3C(=O)[C@H](CCCC)CN(O)C=O)s2)cc1", "Unit info": "µg/mL", "Test value": 4}

Hello, please tell me recorded MIC for this one: CCCC[C@H](CN(O)C=O)C(=O)N1CCC[C@H]1c1nnc(-c2ccc(C)s2)s1
4

Hello, please tell me recorded MIC for this one: CCCC[C@H](CN(O)C=O)C(=O)N1CCC[C@H]1c1nnc(-c2ccsc2)s1
1

###

test system: Staphylococcus aureus; test: Antibacterial activity against methicillin-susceptible Staphylococcus aureus ATCC 25923 after 16 to 18 hrs by broth microdilution method; type: functional; conditions: time 16-18 hrs
Property measured: MIC
The answer consists of two parts: a number and, after it, its unit.

{"Mol smiles": "CCCC[C@H](CN(O)C=O)C(=O)N1CCC[C@H]1C(=O)Nc1ccc(F)c[n+]1[O-]", "MIC": "0.5 µg/mL"}
{"Mol smiles": "CCCC[C@H](CN(O)C=O)C(=O)N1CCC[C@H]1c1nnc(-c2ccc(-c3ccccn3)cc2)s1", "MIC": "0.25 µg/mL"}
{"Mol smiles": "CCCC[C@H](CN(O)C=O)C(=O)N1CCC[C@H]1c1nnc(-c2ccc3[nH]ccc3c2)s1", "MIC": "8 µg/mL"}

Hello, please tell me recorded MIC for this one: CCCC[C@H](CN(O)C=O)C(=O)N1CCC[C@H]1c1nnc(-c2ccc(C)cc2)s1
1 µg/mL

Hello, please tell me recorded MIC for this one: CCCC[C@H](CN(O)C=O)C(=O)N1CCC[C@H]1c1nnc(-c2ccnc(C(F)(F)F)c2)s1
0.5 µg/mL

Hello, please tell me recorded MIC for this one: CCCC[C@H](CN(O)C=O)C(=O)N1CCC[C@H]1c1nnc(-c2ccc(F)cn2)s1
2 µg/mL

Hello, please tell me recorded MIC for this one: CCCC[C@H](CN(O)C=O)C(=O)N1CCC[C@H]1c1nnc(-c2ccccc2OC)s1
1 µg/mL

Hello, please tell me recorded MIC for this one: CCCC[C@H](CN(O)C=O)C(=O)N1CCC[C@H]1c1nnc(-c2cc(OC)c(OC)c(OC)c2)s1
1 µg/mL

Hello, please tell me recorded MIC for this one: CCCC[C@H](CN(O)C=O)C(=O)N1CCC[C@H]1c1nnc(-c2ccc([N+](=O)[O-])cc2C(F)(F)F)s1
2 µg/mL

Hello, please tell me recorded MIC for this one: CCCC[C@H](CN(O)C=O)C(=O)N1CCC[C@H]1c1nnc(CCC)s1
2 µg/mL
